Tested system: SpMyo1
Assay details: SPOT peptide array binding signal intensity (averaged, normalized) (arbitrary units (background-subtracted, floor 0; scale differs between SH3 domains)); higher = stronger binding of the SH3 domain to the peptide
Each record gets a class by SPOT peptide array binding signal intensity: lower level = under 20, middle level = from 20 up to 500, upper level = 500 and over

For the record VNIPSPSSSPPPIPK , report the class its SPOT peptide array binding signal intensity corresponds to. upper level

Quick check: band for PALPSLPPPPLLNVD upper level

Which of the defined bands does the recorded SPOT peptide array binding signal intensity of SHRLWLYAAPKRPKT sit within? lower level

For this binder, which bin applies? MSPLGAPPPPPHKDH upper level

Which bin should I file GPPPPLPPPLFPSSS under? upper level

Field: class (SPOT peptide array binding signal intensity) — entry: ATKSASPTLPTRRSR middle level

Dear colleague, I would appreciate it if you could identify the bin for LLRRTIPKRPFYHVL and reply at your convenience. lower level

Bin this entry: VQKRKLPLPGSIASA lower level

Hello team, could you let me know which band the following binder falls into: NGRRRPKFRVQLSGN lower level

Determine which band this binder sits in: VGFRLALKFPSRITG middle level

Lab note: which band did KNPRRQLQIPRQQPS land in? lower level

Class label required: SNRRPVPRRPSQPLN middle level

Entry KNRKNLPTIPIRLSG belongs to which category? middle level

Hi, small favor: classify RVTRKRPREPKSTND by its SPOT peptide array binding signal intensity when you get a moment. lower level
